tested on: Saccharomyces cerevisiae; experiment: protein stability index of tFT-peptide fusion (C-terminal peptide) (PSI (0-1 scale)); higher = more stable (slower turnover); details: genetic background: wild type; temperature: 37 C
Measured endpoint: protein stability index
Write no unit; give the number alone.

>>> readout_value("VVFVFIDLGLCV")
0.436
>>> readout_value("VIRIRLSCSVDV")
0.387
>>> readout_value("SGRAWRLRMHVI")
0.459
>>> readout_value("IFSTQMVRFSLL")
0.422
>>> readout_value("LLTGRFRILLVV")
0.0674
>>> readout_value("LRVVVGLCMCVL")
0.488
>>> readout_value("GLVVVVRLQYSP")
0.442
>>> readout_value("EKTKTKRERKIN")
0.384

Lab note: measured protein stability index of CFVQVGGLVKIS was 0.57

Lab note: measured protein stability index of LFGFILLGVSCC was 0.193

Lab note: measured protein stability index of YLGSPLSLMLVA was 0.481

Lab note: measured protein stability index of LFSVFSLVLFIF was 0.454

Lab note: measured protein stability index of VRTFAVSCLCVC was 0.128

Lab note: measured protein stability index of PRQPSKSNASNR was 0.701

----------
system: Saccharomyces cerevisiae; assay: protein stability index of tFT-peptide fusion in deletion strain of DAS1 (PSI (0-1 scale)); higher = more stable (slower turnover)
Output True for protein stability index not less than 0.6; output False otherwise.

>>> classification("KKHMKGQKQKIN")
"False"
>>> classification("LKIHRQKMNHQN")
"True"
>>> classification("PSLAASFWSVVG")
"True"
>>> classification("FSMRWTFRYWVT")
"False"

**Query** Does protein stability index meet or surpass 0.6 for PDKRNHLIKLLNN ?
**Result** True

**Query** Does protein stability index meet or surpass 0.6 for FSMRWTFRYCVN ?
**Result** False

**Query** Does protein stability index meet or surpass 0.6 for FSMRWTFRYWYN ?
**Result** False

**Query** Does protein stability index meet or surpass 0.6 for CHSCGYKFRTNN ?
**Result** True

**Query** Does protein stability index meet or surpass 0.6 for FSMRWTFRYWLN ?
**Result** False

**Query** Does protein stability index meet or surpass 0.6 for PDWRNHLIKLLN ?
**Result** True

**Query** Does protein stability index meet or surpass 0.6 for LKIIRQKMNHQN ?
**Result** True

----------
system: Saccharomyces cerevisiae; assay: protein stability index of tFT-peptide fusion (C-terminal peptide) (PSI (0-1 scale)); higher = more stable (slower turnover); settings: genetic background: das1 deletion; temperature: 30 C
Output condition met for protein stability index not less than 0.4; output condition not met otherwise.

Solved entries (count: 5):
>>> classification("EKKNQTAYNKTV")
"condition met"
>>> classification("LQLGFCFVAQFI")
"condition met"
>>> classification("GLACNPQLLRWT")
"condition met"
>>> classification("LPVSLWLVCSFF")
"condition met"
>>> classification("WCVRRVRFVMGC")
"condition not met"

**Query** Does protein stability index meet or surpass 0.4 for LCVGFISFCFCL ?
**Result** condition met

**Query** Does protein stability index meet or surpass 0.4 for FSFEGVLVPLLV ?
**Result** condition not met

**Query** Does protein stability index meet or surpass 0.4 for IVVSSRFLGFFC ?
**Result** condition met

**Query** Does protein stability index meet or surpass 0.4 for MGVTVRVEGIRA ?
**Result** condition not met

**Query** Does protein stability index meet or surpass 0.4 for VRFGYGRIVWDI ?
**Result** condition met
